Origin of measurements: patent US20230381229A1

Listing of recorded Fold increase over wildtype PD-L2 IgV-Fc by entry.
Molecular target: PD-1 expressed on cells (human)
Sequence (chain, as listed by the source): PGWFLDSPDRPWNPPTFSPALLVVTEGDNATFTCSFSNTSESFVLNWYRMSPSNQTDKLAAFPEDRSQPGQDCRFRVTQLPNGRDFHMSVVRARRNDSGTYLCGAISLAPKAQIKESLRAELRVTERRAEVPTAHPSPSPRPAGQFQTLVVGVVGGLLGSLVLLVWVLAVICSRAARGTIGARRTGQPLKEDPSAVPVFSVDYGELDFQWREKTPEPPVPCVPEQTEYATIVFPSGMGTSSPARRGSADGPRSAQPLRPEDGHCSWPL
Experiment: flow cytometry, Jurkat/PD-1 cells
Number only, please.

Consider the following illustrative entries.
[
  {
    "binder": "variant PD-L2 IgV-Fc H15Q, T47A, Q72H, R76G, I86T (Fc fusion) LFTVTVPKELYIIEQGSNVTLECNFDTGSHVNLGAITASLQKVENDASPHRERATLLEEQLPLGKASFHIPHVQVGDEGQYQCIITYGVAWDYKYLTLKVKA",
    "readoutLabel": "Fold increase over wildtype PD-L2 IgV-Fc",
    "value": 3.26
  },
  {
    "binder": "variant PD-L2 IgV-Fc S67L, I85F (Fc fusion) LFTVTVPKELYIIEHGSNVTLECNFDTGSHVNLGAITASLQKVENDTSPHRERATLLEEQLPLGKALFHIPQVQVRDEGQYQCIFIYGVAWDYKYLTLKVKA",
    "readoutLabel": "Fold increase over wildtype PD-L2 IgV-Fc",
    "value": 0.05
  },
  {
    "binder": "variant PD-L2 IgV-Fc H15Q (Fc fusion) LFTVTVPKELYIIEQGSNVTLECNFDTGSHVNLGAITASLQKVENDTSPHRERATLLEEQLPLGKASFHIPQVQVRDEGQYQCIIIYGVAWDYKYLTLKVKA",
    "readoutLabel": "Fold increase over wildtype PD-L2 IgV-Fc",
    "value": 1.63
  }
]

Next up:
Give the measured Fold increase over wildtype PD-L2 IgV-Fc of variant PD-L2 IgV-Fc H15Q, V89D (Fc fusion) LFTVTVPKELYIIEQGSNVTLECNFDTGSHVNLGAITASLQKVENDTSPHRERATLLEEQLPLGKASFHIPQVQVRDEGQYQCIIIYGDAWDYKYLTLKVKA . 1.8
